Entry source: paper PMC10896213

# experimentalTarget: KIF18A (Homo sapiens)
# Construct: KIF18A (1−417); with pig microtubules (tubulin)
# Sequence (Q8NI77 1-417): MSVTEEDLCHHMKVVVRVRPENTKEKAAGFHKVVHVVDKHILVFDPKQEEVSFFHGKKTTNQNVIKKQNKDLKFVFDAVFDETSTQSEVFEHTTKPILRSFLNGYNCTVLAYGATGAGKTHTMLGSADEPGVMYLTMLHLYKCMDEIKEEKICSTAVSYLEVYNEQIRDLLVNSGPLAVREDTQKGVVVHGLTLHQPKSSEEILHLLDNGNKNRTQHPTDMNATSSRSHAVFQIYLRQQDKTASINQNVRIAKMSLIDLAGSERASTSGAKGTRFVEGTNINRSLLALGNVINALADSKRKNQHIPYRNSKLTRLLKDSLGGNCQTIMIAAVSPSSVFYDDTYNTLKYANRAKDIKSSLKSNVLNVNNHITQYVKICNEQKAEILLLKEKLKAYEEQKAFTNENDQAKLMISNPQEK
# assayDetails: microtubule-stimulated ATPase assay (ADP-Glo)
measuredQuantity: pIC50
Numbers only, as −log10 of the molar value.

Value of measured pIC50 for the entry `Cc1cc(NC(=O)c2cnc(NS(=O)(=O)CCO)cc2N2CCC3(CC2)CC3)nc(N2CCC(F)(F)CC2)n1` : 8.09
